# measurement target: cyclooxygenase-1 (Homo sapiens)
# Sequence (P23219 24-599, species assumed): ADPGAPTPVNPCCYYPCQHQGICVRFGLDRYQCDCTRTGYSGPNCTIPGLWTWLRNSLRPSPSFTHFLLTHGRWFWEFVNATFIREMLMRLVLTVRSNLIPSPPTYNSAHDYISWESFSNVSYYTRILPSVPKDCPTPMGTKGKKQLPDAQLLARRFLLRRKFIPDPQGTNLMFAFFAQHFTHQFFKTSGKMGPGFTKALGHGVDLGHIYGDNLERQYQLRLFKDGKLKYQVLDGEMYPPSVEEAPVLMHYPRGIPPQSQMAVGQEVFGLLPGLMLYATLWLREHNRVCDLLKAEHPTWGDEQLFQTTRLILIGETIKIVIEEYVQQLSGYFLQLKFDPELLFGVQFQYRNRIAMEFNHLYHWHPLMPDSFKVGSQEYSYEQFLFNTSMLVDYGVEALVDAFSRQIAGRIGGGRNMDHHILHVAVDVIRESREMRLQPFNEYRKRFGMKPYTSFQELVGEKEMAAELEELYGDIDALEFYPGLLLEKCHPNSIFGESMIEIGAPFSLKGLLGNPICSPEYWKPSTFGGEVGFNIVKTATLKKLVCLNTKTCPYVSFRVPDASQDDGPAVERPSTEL
measured parameter: IC50 (µM)
Field format: number, assumed µM, no unit text.

Form field IC50, entry C/C(=C\CO[C@@H]1O[C@H](CO)[C@@H](OC(=O)/C=C/c2ccc(O)cc2)[C@H](O[C@@H]2O[C@@H](C)[C@H](O)[C@@H](O)[C@H]2O)[C@H]1O)C/C=C/C(C)(C)OO [liguroside A] : 21.5

* * *

pIC50 values, listed per item
# measurement target: leukocyte-type 12-lipoxygenase (Mus musculus, UniProt P39654)
# Sequence (P39654 whole entry): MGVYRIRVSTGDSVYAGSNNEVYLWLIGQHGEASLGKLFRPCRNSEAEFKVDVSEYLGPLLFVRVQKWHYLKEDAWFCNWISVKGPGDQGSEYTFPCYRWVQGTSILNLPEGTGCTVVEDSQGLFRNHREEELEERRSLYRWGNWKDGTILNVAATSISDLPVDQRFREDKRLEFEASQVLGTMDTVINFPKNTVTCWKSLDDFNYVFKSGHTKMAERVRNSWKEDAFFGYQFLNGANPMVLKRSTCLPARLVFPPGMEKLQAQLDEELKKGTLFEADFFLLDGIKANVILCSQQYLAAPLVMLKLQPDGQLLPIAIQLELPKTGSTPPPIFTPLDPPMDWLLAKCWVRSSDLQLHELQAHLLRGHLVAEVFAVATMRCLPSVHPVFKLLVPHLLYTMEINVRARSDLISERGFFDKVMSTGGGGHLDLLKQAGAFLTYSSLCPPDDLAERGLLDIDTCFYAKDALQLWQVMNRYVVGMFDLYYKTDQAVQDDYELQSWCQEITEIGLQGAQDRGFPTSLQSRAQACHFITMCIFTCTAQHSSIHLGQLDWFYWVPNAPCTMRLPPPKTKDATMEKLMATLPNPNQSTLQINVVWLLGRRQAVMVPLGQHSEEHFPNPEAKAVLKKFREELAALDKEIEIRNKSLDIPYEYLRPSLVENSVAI
# protocol details: leukocyte-type 12-lipoxygenase inhibition assay (arachidonic acid, HPLC quantification)
# Format: biochemical
# condition details: 25 μM arachidonic acid, 30 °C, 5 min
Lab note: report pIC50 as minus log10 of the concentration in molar units, number only.

Record C=CC(C)(C/C=C/C(C)(C)OO)O[C@@H]1O[C@H](CO)[C@@H](OC(=O)/C=C/c2ccc(O)cc2)[C@H](O[C@@H]2O[C@@H](C)[C@H](O)[C@@H](O)[C@H]2O)[C@H]1O (some centres unmarked) [liguroside C] , field pIC50: 5.54

pIC50 in this record for C=C(C)C(CC/C(C)=C/CO[C@@H]1O[C@H](CO)[C@@H](OC(=O)/C=C/c2ccc(O)cc2)[C@H](O[C@@H]2O[C@@H](C)[C@H](O)[C@@H](O)[C@H]2O)[C@H]1O)OO (some centres unmarked) [liguroside D] : 5.38

* * *

Target sequence: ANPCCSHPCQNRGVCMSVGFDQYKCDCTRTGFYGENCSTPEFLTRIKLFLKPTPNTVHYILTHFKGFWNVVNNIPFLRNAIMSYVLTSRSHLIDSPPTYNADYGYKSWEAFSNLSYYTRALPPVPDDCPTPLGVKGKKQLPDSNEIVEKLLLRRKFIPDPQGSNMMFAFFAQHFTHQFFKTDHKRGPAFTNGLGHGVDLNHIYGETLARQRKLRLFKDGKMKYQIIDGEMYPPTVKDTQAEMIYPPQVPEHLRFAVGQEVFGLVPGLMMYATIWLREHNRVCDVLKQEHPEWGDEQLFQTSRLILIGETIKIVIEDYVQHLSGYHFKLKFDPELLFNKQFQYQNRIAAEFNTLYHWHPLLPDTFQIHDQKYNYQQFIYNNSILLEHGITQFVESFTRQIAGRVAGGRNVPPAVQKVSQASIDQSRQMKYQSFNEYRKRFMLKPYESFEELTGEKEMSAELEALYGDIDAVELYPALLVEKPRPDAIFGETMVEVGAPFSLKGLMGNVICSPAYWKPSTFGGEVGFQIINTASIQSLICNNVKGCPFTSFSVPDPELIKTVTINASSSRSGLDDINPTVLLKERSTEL
measured parameter: IC50
Remember to quote the unit after the number.

# IC50 (molecule: C/C(=C\CO[C@@H]1O[C@H](CO)[C@@H](OC(=O)/C=C/c2ccc(O)cc2)[C@H](O[C@@H]2O[C@@H](C)[C@H](O)[C@@H](O)[C@H]2O)[C@H]1O)C/C=C/C(C)(C)OO [liguroside A] ) is 16.9 µM

Cited source for all entries: paper PMC6358863
